# reported CEM.T2 % Binding; entries follow
Target: HLA A*0201 on CEM.T2 cell line (Homo sapiens, UniProt P04439, D140Y/D185E/D98H/E176V/E277Q/G131W/G231S/I119V/I121R/I166T/I218V/L300P/L318F/N151K/N90K/P208A/P217A/Q86G/Q94H/R138H/R169H/T345S)
Construct: This cell line expresses HLA A*0201 but is deficient for TAP transporter; endogenous in cells; host or cells: CEM.T2 (T2) cell line
Assay: Cellular binding assay, HLA stabilization on CEM.T2 cells
Type: cell-based
Details: 100 μM peptide, 37° C. for 4 h, FACS anti HLA-A2; relative to HBV positive control peptide
Residues, ends and D or L forms follow the SMILES beside them.
Test readout: CEM.T2 % Binding (%)

>  <Molecule>
CSCC[C@H](NC(=O)[C@H](C)N)C(=O)N[C@@H](CC(C)C)C(=O)N[C@@H](CCCCN)C(=O)N[C@@H](CS)C(=O)N[C@@H](CC(C)C)C(=O)N[C@@H](CO)C(=O)N[C@@H](CCC(=O)O)C(=O)NCC(=O)O [Peptide 266] (H-AMLKCLSEG-OH; N-terminus and C-terminus assumed)

>  <Result>
31

$$$$
>  <Molecule>
CC[C@H](C)[C@H](NC(=O)[C@@H](NC(=O)CN)C(C)C)C(=O)N[C@@H](C)C(=O)N[C@@H](C)C(=O)N[C@@H](CC(C)C)C(=O)N[C@@H](CC(C)C)C(=O)N[C@@H](Cc1ccccc1)C(=O)N[C@@H](CS)C(=O)O [Peptide 354] (H-GVIAALLFC-OH; N-terminus and C-terminus assumed)

>  <Result>
10

$$$$

* * *

# reported EC50; entries follow
Molecular target: HLA-A*0201 (Homo sapiens, UniProt P04439, D140Y/D185E/D98H/E176V/E277Q/G131W/G231S/I119V/I121R/I166T/I218V/L300P/L318F/N151K/N90K/P208A/P217A/Q86G/Q94H/R138H/R169H/T345S)
Assay: biochemical
Format: binding
Settings: peptide concentration giving 50% of optimal binding; 10^−4 to 10^−9 M, 21° C. for 18 h; read-out: Affinity (ED50)
Residues, ends and D or L forms follow the SMILES beside them.
Test readout: EC50 (nM)

>  <Compound>
CC(C)C[C@H](NC(=O)[C@H](CS)NC(=O)[C@H](Cc1ccccc1)NC(=O)[C@H](CC(C)C)NC(=O)[C@@H](N)CC(C)C)C(=O)N[C@@H](CC(C)C)C(=O)N[C@H](C(=O)N[C@H](C(=O)N[C@H](C(=O)O)C(C)C)C(C)C)C(C)C [Peptide 359] (H-LLFCLLVVV-OH; N-terminus and C-terminus assumed)

>  <Result>
500

$$$$
>  <Compound>
CC(C)C[C@H](NC(=O)[C@H](Cc1c[nH]cn1)NC(=O)[C@H](Cc1ccccc1)NC(=O)[C@H](CCC(=O)O)NC(=O)[C@H](CO)NC(=O)[C@@H](NC(=O)[C@@H](NC(=O)[C@H](C)N)C(C)C)[C@@H](C)O)C(=O)N[C@H](C(=O)O)C(C)C [Peptide 203] (H-AVTSEFHLV-OH; N-terminus and C-terminus assumed)

>  <Result>
400

$$$$
>  <Compound>
CC(C)C[C@H](NC(=O)[C@@H](N)Cc1ccccc1)C(=O)N[C@@H](C)C(=O)N[C@@H](CCC(=O)O)C(=O)N[C@@H](C)C(=O)N[C@@H](CO)C(=O)N[C@H](C(=O)N[C@@H](CCCNC(=N)N)C(=O)NCC(=O)O)C(C)C [Peptide 244] (H-FLAEASVRG-OH; N-terminus and C-terminus assumed)

>  <Result>
700

$$$$

* * *

Biological target: HLA-A*0201 (Homo sapiens, UniProt P04439, D140Y/D185E/D98H/E176V/E277Q/G131W/G231S/I119V/I121R/I166T/I218V/L300P/L318F/N151K/N90K/P208A/P217A/Q86G/Q94H/R138H/R169H/T345S)
Assay: iTOPIA EDS MHC peptide binding assay
Conditions: HLA-A*0201 monomer, relative to positive control peptide, 21° C. for 18 h
Residues, ends and D or L forms follow the SMILES beside them.
Test readout: % Binding (%)

>  <Molecule>
CC(C)C[C@H](NC(=O)[C@H](C)N)C(=O)N[C@@H](CC(C)C)C(=O)N[C@@H](Cc1ccccc1)C(=O)N[C@@H](CS)C(=O)N[C@@H](CC(C)C)C(=O)N[C@@H](CC(C)C)C(=O)N[C@H](C(=O)N[C@H](C(=O)O)C(C)C)C(C)C [Peptide 358] (H-ALLFCLLVV-OH; N-terminus and C-terminus assumed)

>  <Test readout>
% Binding

>  <Result>
53

$$$$
>  <Molecule>
CC[C@H](C)[C@H](NC(=O)[C@@H](N)C(C)C)C(=O)N[C@@H](C)C(=O)N[C@@H](C)C(=O)N[C@@H](CC(C)C)C(=O)N[C@@H](CC(C)C)C(=O)N[C@@H](Cc1ccccc1)C(=O)N[C@@H](CS)C(=O)N[C@@H](CC(C)C)C(=O)O [Peptide 355] (H-VIAALLFCL-OH; N-terminus and C-terminus assumed)

>  <Test readout>
% Binding

>  <Result>
59

$$$$
>  <Molecule>
CC(C)[C@H](NC(=O)CNC(=O)[C@@H](NC(=O)[C@@H](NC(=O)[C@@H](NC(=O)[C@@H](NC(=O)[C@H](CO)NC(=O)[C@H](C)NC(=O)[C@@H](N)CO)C(C)C)C(C)C)C(C)C)C(C)C)C(=O)O [Peptide 347] (H-SASVVVVGV-OH; N-terminus and C-terminus assumed)

>  <Test readout>
% Binding

>  <Result>
64

$$$$
>  <Molecule>
CC(C)C[C@H](NC(=O)CNC(=O)[C@H](Cc1ccc(O)cc1)NC(=O)[C@H](CCCCN)NC(=O)[C@H](CO)NC(=O)[C@H](Cc1c[nH]cn1)NC(=O)[C@H](CC(C)C)NC(=O)[C@H](CC(C)C)NC(=O)[C@H](C)N)C(=O)O [Peptide 80] (H-ALLHSKYGL-OH; N-terminus and C-terminus assumed)

>  <Test readout>
% Binding

>  <Result>
87

$$$$
>  <Molecule>
CSCC[C@H](NC(=O)[C@H](C)N)C(=O)N[C@@H](CC(C)C)C(=O)N[C@@H](CCCCN)C(=O)N[C@@H](CS)C(=O)N[C@@H](CC(C)C)C(=O)N[C@@H](CO)C(=O)N[C@@H](CCC(=O)O)C(=O)NCC(=O)O [Peptide 266] (H-AMLKCLSEG-OH; N-terminus and C-terminus assumed)

>  <Test readout>
% Binding

>  <Result>
74

$$$$
>  <Molecule>
CC[C@H](C)[C@H](N)C(=O)N[C@@H](CC(C)C)C(=O)N[C@@H](Cc1c[nH]cn1)C(=O)N[C@H](C(=O)N[C@@H](CO)C(=O)N[C@@H](Cc1ccccc1)C(=O)N[C@@H](CC(C)C)C(=O)N[C@@H](C)C(=O)N[C@@H](CCC(=O)O)C(=O)O)C(C)C [Peptide 239] (H-ILHVSFLAE-OH; N-terminus and C-terminus assumed)

>  <Test readout>
% Binding

>  <Result>
61

$$$$
>  <Molecule>
CC(C)C[C@H](NC(=O)[C@H](CS)NC(=O)[C@H](Cc1ccccc1)NC(=O)[C@H](CC(C)C)NC(=O)[C@@H](N)CC(C)C)C(=O)N[C@@H](CC(C)C)C(=O)N[C@H](C(=O)N[C@H](C(=O)N[C@H](C(=O)O)C(C)C)C(C)C)C(C)C [Peptide 359] (H-LLFCLLVVV-OH; N-terminus and C-terminus assumed)

>  <Test readout>
% Binding

>  <Result>
67

$$$$
>  <Molecule>
CC(C)[C@H](NC(=O)[C@@H](NC(=O)[C@@H](NC(=O)[C@@H](NC(=O)[C@@H](NC(=O)[C@H](CC(=O)O)NC(=O)[C@H](CO)NC(=O)[C@@H](NC(=O)CN)[C@@H](C)O)C(C)C)C(C)C)[C@@H](C)O)C(C)C)C(=O)O [Peptide 35] (H-GTSDVVTVV-OH; N-terminus and C-terminus assumed)

>  <Test readout>
% Binding

>  <Result>
63

$$$$
>  <Molecule>
CC(C)C[C@H](NC(=O)[C@@H](N)CC(C)C)C(=O)N[C@@H](C)C(=O)N[C@@H](CO)C(=O)N[C@@H](Cc1ccccc1)C(=O)N[C@H](C(=O)NCC(=O)N[C@@H](CCCNC(=N)N)C(=O)N[C@@H](CS)C(=O)O)[C@@H](C)O [Peptide 21] (H-LLASFTGRC-OH; N-terminus and C-terminus assumed)

>  <Test readout>
% Binding

>  <Result>
91

$$$$
>  <Molecule>
CC(C)C[C@H](NC(=O)[C@H](CC(C)C)NC(=O)[C@H](CC(C)C)NC(=O)[C@@H](N)CC(C)C)C(=O)N[C@@H](C)C(=O)N[C@@H](CO)C(=O)N[C@@H](Cc1ccccc1)C(=O)N[C@H](C(=O)NCC(=O)O)[C@@H](C)O [Peptide 19] (H-LLLLASFTG-OH; N-terminus and C-terminus assumed)

>  <Test readout>
% Binding

>  <Result>
75

$$$$
>  <Molecule>
CC(C)C[C@H](NC(=O)[C@H](CO)NC(=O)[C@@H]1CCCN1C(=O)[C@H](CC(C)C)NC(=O)[C@@H]1CCCN1C(=O)[C@@H]1CCCN1C(=O)[C@@H](NC(=O)[C@H](CC(C)C)NC(=O)[C@@H](N)C(C)C)C(C)C)C(=O)O [Peptide 145] (H-VLVPPLPSL-OH; N-terminus and C-terminus assumed)

>  <Test readout>
% Binding

>  <Result>
67

$$$$
>  <Molecule>
CC(C)C[C@H](NC(=O)[C@H](CCCNC(=N)N)NC(=O)[C@H](C)NC(=O)[C@H](CCC(N)=O)NC(=O)[C@@H](N)Cc1ccccc1)C(=O)N[C@@H](CCCNC(=N)N)C(=O)N[C@@H](CC(C)C)C(=O)N[C@@H](CCCNC(=N)N)C(=O)N[C@H](C(=O)O)C(C)C [Peptide 137] (H-FQARLRLRV-OH; N-terminus and C-terminus assumed)

>  <Test readout>
% Binding

>  <Result>
69

$$$$
